test system: HCC-2998 colon; test: NCI-60 one-dose screen, 48 h (100 = growth as untreated, 0 = no growth, -100 = all killed); settings: 10 µM unless noted
The panel holds about 83,000 compounds, 20% with a hit somewhere; the sample as a whole holds those more often.
Listing of entries alongside the reported growth.
Reply with just the number (in %).

// known answers, use as guide
molecule	unit_of_measure	recorded_measurement
COc1cc(OC)c2sc(-c3ccc(-n4cncc4-c4ccc(OC)c(OC)c4)cc3)nc2c1	%	76.4
CCCCCCCCCCCCCCCC(N)c1ccccc1 (stereo not given)	%	-98.2
OCCNCCCOc1ccc2ncnc(Nc3ccc(Oc4cccc(C(F)(F)F)c4)c(Cl)c3)c2c1	%	-75.1
C#CCOc1cccc(Nc2ncnc3c(NC(=O)C=C)cccc23)c1	%	79

// query Find the recorded growth belonging to C=CCn1c(SCC(=O)NCc2cc(C)c(O)c(C)c2)nc2ccc(Cl)cc2c1=O and report it.
// result 110

====

test system: KM12 colon; experiment: NCI-60 one-dose screen, 48 h; conditions: 10 µM unless noted
About 83,000 compounds went through this panel and 20% of them were active in at least one assay; those are over-represented in the sample as a whole. Calls of active or inactive are those of the source. How the source made its calls: active means growth percent below 10; inactive means the rest.
Outcome field: choose from 1.0 = active, 0.0 = inactive

A selection of reference data follows.
molecule	class
CCN1C(=O)N(CC)C2C1NN=c1s/c(=C\c3ccc(Cl)cc3Cl)c(=O)n12 (stereo unspecified)	1.0
Clc1ccc(Nc2nnc(COc3ccccc3)c3ccccc23)cc1	1.0
N=C(N)c1ccc(-c2ccc(-c3cc(Cl)cc(Cl)c3)o2)o1	1.0
O=C1Nc2ccccc2[C@]12CC(c1ccccc1)=NN2	0.0
O=[N+]([O-])C1C(c2ccccc2)C12c1ccccc1-c1ccccc12 (stereo unspecified)	1.0
Cc1ccccc1/C=C1\CN(C(=O)OC(C)(C)C)C/C(=C\c2ccccc2C)C1=O	1.0
COC(=O)c1c2c(c(C)[n+]([O-])c1C)C(=O)C=C(NCc1ccc(Br)cc1)C2=O	1.0
CS(=O)(=O)c1cccc(-c2c(-c3cccc(OS(N)(=O)=O)c3)nc3sccn23)c1	0.0

// query What did the test return for Cc1ccc(-n2c(=S)[nH]c3sc4c(c3c2=O)CCC(=O)C4)cc1 ?
// result 0.0

// query C#CCOc1cccc(Nc2ncnc3c(NC(=O)C=C)cccc23)c1 ?
// result 1.0

// query Ok, now CCOC(=O)c1cnc2ccccc2c1Cl
// result 0.0

====

system: SK-MEL-2 melanoma; assay: NCI-60 one-dose screen, 48 h (100 = growth as untreated, 0 = no growth, -100 = all killed); settings: 10 µM unless noted
About 83,000 compounds went through this panel and 20% of them were active in at least one assay; those are over-represented in the sample as a whole.
Record 1 (yes) whenever growth is at 80% or higher; record 0 (no) when lower.

Solved cases below.
structure	class
CC(C)(C)n1cc(-c2ccnc(NCCCNS(=O)(=O)c3ccc(F)cc3)c2)c(-c2cccc(F)c2)n1	1 (yes)
CCOC(=O)C(=Cc1cccc(Cl)c1)C(=O)OCC	0 (no)
COC(=O)c1cc(-c2ccc(OC)cc2)[nH]c1N/N=C/c1c(Cl)cccc1Cl	0 (no)

// query Assess whether reported growth for CN1CCN(C(=O)OCc2ccc3c(Cl)cc(Cl)c(O)c3n2)CC1 sits at 80% or higher.
// result 0 (no)

// query Now the same for COc1ccc(NC(=O)c2sc3nc(C)c(C(=O)/C=C/c4cccc(OC)c4)cc3c2N)cc1
// result 0 (no)
